Origin of values: ChEMBL document CHEMBL1140268

test-system: Cathepsin B (Homo sapiens, UniProt P07858)
pIC50: −log10 of the molar value.

>  <compound>
C[C@@H](CC1CCCCC1)OC(=O)C1CCN1C#N (stereo partly specified)

>  <test-system>
Cathepsin B (Homo sapiens, UniProt P07858)

>  <pIC50>
8.62

$$$$
